STUDY_SYSTEM: SERT (Homo sapiens, UniProt P31645)
Sequence (P31645 whole entry, species assumed): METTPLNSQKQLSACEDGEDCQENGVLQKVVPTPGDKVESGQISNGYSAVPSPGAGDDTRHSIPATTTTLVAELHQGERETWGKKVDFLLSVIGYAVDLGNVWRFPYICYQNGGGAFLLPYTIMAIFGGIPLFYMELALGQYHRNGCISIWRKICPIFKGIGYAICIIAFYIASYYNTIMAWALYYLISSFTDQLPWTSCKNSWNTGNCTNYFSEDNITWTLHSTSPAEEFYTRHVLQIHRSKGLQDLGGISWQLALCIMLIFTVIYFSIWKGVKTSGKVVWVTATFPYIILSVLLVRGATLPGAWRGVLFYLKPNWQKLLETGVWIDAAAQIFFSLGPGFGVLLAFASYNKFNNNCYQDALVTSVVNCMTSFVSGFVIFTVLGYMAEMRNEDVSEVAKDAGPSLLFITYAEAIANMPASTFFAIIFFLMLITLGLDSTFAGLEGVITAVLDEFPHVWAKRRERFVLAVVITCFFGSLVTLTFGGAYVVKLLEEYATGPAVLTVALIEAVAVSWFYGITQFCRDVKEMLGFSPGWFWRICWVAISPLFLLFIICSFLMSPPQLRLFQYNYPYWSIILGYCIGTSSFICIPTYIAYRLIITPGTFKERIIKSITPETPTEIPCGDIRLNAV
ASSAY_TEXT: SERT Cellular Functional assay
Format: cell-based
MEASURE: IC50 (µM)

- CC[C@H]1CC2C[C@H]3c4[nH]c5ccc(OC(C)OC)cc5c4CC[N@@](C2)C13 (stereo partly shown): 11.9

###

ASSAY_TEXT: Microsome half-life RLM
Type: in vitro ADME
RECORDED_CONDITIONS: rat, liver microsomes, +NADPH
MEASURE: half-life (min)

- CC[C@H]1CC2C[C@H]3c4[nH]c5ccc(OC(C)OC)cc5c4CC[N@@](C2)C13 (stereo partly shown): 4
